Molecular target: T1, RBFOX1 RRM RbFoxmut (Fox-RRM*) (Homo sapiens, UniProt Q9NWB1 109-208, R118D;E147R;N151S;E152T)
T1 sequence: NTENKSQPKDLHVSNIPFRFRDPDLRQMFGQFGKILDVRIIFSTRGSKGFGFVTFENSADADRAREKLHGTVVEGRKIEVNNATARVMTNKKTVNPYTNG
Test: EMSA; HiTS-Eq, 1 nM pool, 10 min; buffer printed only for the single-RNA assays: 10 mM Tris pH 7.5, 150 mM NaCl, 3.4 mM EDTA, 0.001% NP-40, 30 C
Conditions: tags: His6 N-terminal (pET28a); label: 5' 32P
Over roughly 16,000 sequences, “ka relative to ugcaugu” has its median near 0.096; the highest 2% begin near 0.35. The full list was thinned out, with the highest values kept by preference.
Measured metric: binding signal

Binder	Test value
GCAUGCA (DNA:RNA) RNA: GGGAGACCGGAAUUCAGAUUGUCCGCAUGCAUUAAAUCCCGUCGUAGCCACCA DNA 1: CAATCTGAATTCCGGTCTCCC DNA 2: TGGTGGCTACGACGGGATT	0.828 KA relative to UGCAUGU

Give recorded binding signal. GCAUUAA (DNA:RNA) RNA: GGGAGACCGGAAUUCAGAUUGUCCGCAUUAAUUAAAUCCCGUCGUAGCCACCA DNA 1: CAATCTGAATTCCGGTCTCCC DNA 2: TGGTGGCTACGACGGGATT
0.141 KA relative to UGCAUGU
